Test system: T1, B-cat-Halo (beta-catenin HaloTag construct expressed in HEK293 cells) (UniProt P35222 1-781)
T1 sequence (looked up): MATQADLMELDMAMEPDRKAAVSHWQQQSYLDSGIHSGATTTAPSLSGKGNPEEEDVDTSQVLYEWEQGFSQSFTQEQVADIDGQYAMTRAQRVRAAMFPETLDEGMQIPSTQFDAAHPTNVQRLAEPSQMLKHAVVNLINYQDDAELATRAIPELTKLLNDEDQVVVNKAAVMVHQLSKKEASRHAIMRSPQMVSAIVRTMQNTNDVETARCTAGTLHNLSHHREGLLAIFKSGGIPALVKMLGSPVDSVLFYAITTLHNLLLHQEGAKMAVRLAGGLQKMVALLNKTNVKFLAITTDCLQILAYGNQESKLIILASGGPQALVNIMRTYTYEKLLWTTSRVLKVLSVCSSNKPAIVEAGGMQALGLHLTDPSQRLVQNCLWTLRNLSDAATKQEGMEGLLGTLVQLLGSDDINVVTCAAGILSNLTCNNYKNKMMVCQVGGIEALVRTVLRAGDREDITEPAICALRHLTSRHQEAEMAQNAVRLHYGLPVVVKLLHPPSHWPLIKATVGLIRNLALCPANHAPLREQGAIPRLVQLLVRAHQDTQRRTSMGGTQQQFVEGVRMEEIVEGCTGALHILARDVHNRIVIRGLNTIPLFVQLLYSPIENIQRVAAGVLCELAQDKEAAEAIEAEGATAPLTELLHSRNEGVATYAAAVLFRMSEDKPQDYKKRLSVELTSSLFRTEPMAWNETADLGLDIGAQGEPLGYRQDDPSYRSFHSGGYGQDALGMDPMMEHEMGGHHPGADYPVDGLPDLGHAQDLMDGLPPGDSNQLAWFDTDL
Experimental protocol: cell-based or functional assay
Starred links: 1 amine or outer side, 2 acyl side, 3 side chain; linkers in the order of their positions; H or OH if unused. Positions of bridges follow the written chain, without caps; N, C: chain ends. Non-standard residues stand in square brackets, D forms with d. Primed or numbered codes have the meaning given here. (Pfbn)GAbu = (S)-2-amino-4-((carboxymethyl)((perfluorophenyl)methyl)amino)butanoic acid, O=C([C@H](CCN(CC(=O)[*:3])Cc1c(F)c(F)c(F)c(F)c1F)N[*:1])[*:2]; PyrS2″ = (S)-3-amino-1-((pent-4-en-1-yloxy)carbonyl)pyrrolidine-3-carboxylic acid (stapling residue), C=CCCCOC(=O)N1CC[C@@](N[*:1])(C(=O)[*:2])C1; (Tfb)GAbu = (S)-2-amino-4-((carboxymethyl)(4,4,4-trifluorobutyl)amino)butanoic acid, O=C([C@H](CCN(CCCC(F)(F)F)CC(=O)[*:3])N[*:1])[*:2]; (Tfp)GAbu = (S)-2-amino-4-((carboxymethyl)(3,3,3-trifluoropropyl)amino)butanoic acid, O=C([C@H](CCN(CCC(F)(F)F)CC(=O)[*:3])N[*:1])[*:2]; B5(4) = 2,2-bis(4-pentenyl)glycine = 2-amino-2-(pent-4-en-1-yl)hept-6-enoic acid (stitching residue), C=CCCCC(CCCC=C)(N[*:1])C(=O)[*:2]; PyrS″ = (S)-1-((allyloxy)carbonyl)-3-aminopyrrolidine-3-carboxylic acid (stapling residue), C=CCOC(=O)N1CC[C@@](N[*:1])(C(=O)[*:2])C1; PyrS1 = (S)-3-amino-1-((but-3-en-1-yloxy)carbonyl)pyrrolidine-3-carboxylic acid, C=CCCOC(=O)N1CC[C@@](N[*:1])(C(=O)[*:2])C1; (Bn)GAbu = (S)-2-amino-4-(benzyl(carboxymethyl)amino)butanoic acid, O=C([C@H](CCN(CC(=O)[*:3])Cc1ccccc1)N[*:1])[*:2]; PyrS = (S)-1-((allyloxy)carbonyl)-3-aminopyrrolidine-3-carboxylic acid, C=CCOC(=O)N1CC[C@@](N[*:1])(C(=O)[*:2])C1; B5(19) = 2-amino-2-(pent-4-en-1-yl)hept-6-enoic acid (bis(4-pentenyl)glycine), C=CCCCC(CCCC=C)(N[*:1])C(=O)[*:2]; Bta = N[C@@H](Cc1csc2ccccc12)C(=O)O; αAllylPro = C=CC[C@@]1(C(=O)O)CCCN1; tBuAla = CC(C)(C)C[C@H](N)C(=O)O; 3Thi = N[C@@H](Cc1ccsc1)C(=O)O

Binder: Ac-[αAllylPro]D[tBuAla][B5(4)]D[(Bn)GAbu]AAFL[PyrS2″][3Thi][Bta]Q-NH2 (staple 1-4, 4-11) [I-1834]
Result qualifier: =
NanoBRET Abs IC50, µM: 18.8
//
Binder: Ac-[αAllylPro]D[tBuAla][B5(19)]DDAAFL[PyrS][3Thi][Bta]Q-NH2 (staple 1-4, 4-11) [I-1818]
Result qualifier: >
NanoBRET Abs IC50, µM: 20
//
Binder: Ac-[αAllylPro]D[tBuAla][B5(19)]DDAAFN[PyrS][3Thi][Bta]Q-NH2 (staple 1-4, 4-11; also: staple olefins reduced to CH2-CH2) [I-1823]
Result qualifier: >
NanoBRET Abs IC50, µM: 20
//
Binder: Ac-[αAllylPro]D[tBuAla][B5(4)]D[(Pfbn)GAbu]AAFL[PyrS2″][3Thi][Bta]Q-NH2 (staple 1-4, 4-11) [I-1838]
Result qualifier: =
NanoBRET Abs IC50, µM: 7.9
//
Binder: Ac-[αAllylPro]D[tBuAla][B5(19)]DDAAFN[PyrS1][3Thi][Bta]Q-NH2 (staple 1-4, 4-11; also: staple olefins reduced to CH2-CH2) [I-1821]
Result qualifier: >
NanoBRET Abs IC50, µM: 20
//
Binder: Ac-[αAllylPro]D[tBuAla][B5(4)]D[(Tfp)GAbu]AAFL[PyrS2″][3Thi][Bta]Q-NH2 (staple 1-4, 4-11) [I-1839]
Result qualifier: =
NanoBRET Abs IC50, µM: 14.6
//
Binder: Ac-[αAllylPro]D[tBuAla][B5(4)]D[(Tfb)GAbu]AAFL[PyrS2″][3Thi][Bta]Q-NH2 (staple 1-4, 4-11) [I-1837]
Result qualifier: =
NanoBRET Abs IC50, µM: 18.5
//
Binder: Ac-[αAllylPro]D[tBuAla][B5(4)]DDAAFL[PyrS″][3Thi][Bta]Q-NH2 (staple 1-4, 4-11; also: staple -CH=CH- reduced to -CH2-CH2- in both staples) [I-1824]
Result qualifier: >
NanoBRET Abs IC50, µM: 20
